Assay: pKa by titration with NaOH
Format: physicochemical
Conditions: read-out: pKa
Give pKa for every item shown.

**Query** Which pKa is listed for Cn1nc(S(N)(=O)=O)sc1=NC(=O)C(Cl)(Cl)Cl [trichloromethazolamide] ?
**Result** 7

**Query** Then what about the compound NS(=O)(=O)c1nnc(-c2ccccc2Cl)s1 ?
**Result** 7.3

----------
Experiment: solubility in water
Conditions: water
value-type: solubility

**Query** Entry CCOc1ccc2nc(S(N)(=O)=O)sc2c1 [ethoxzolamide, 6-ethoxy-benzothiazole-2-sulfonamide] has what solubility?
**Result** ≤ 40 µg/mL
